test system: human TLR7 (Homo sapiens)
Construct: host or cells: HEK-Blue cells
Sequence (Q9NYK1 27-1049): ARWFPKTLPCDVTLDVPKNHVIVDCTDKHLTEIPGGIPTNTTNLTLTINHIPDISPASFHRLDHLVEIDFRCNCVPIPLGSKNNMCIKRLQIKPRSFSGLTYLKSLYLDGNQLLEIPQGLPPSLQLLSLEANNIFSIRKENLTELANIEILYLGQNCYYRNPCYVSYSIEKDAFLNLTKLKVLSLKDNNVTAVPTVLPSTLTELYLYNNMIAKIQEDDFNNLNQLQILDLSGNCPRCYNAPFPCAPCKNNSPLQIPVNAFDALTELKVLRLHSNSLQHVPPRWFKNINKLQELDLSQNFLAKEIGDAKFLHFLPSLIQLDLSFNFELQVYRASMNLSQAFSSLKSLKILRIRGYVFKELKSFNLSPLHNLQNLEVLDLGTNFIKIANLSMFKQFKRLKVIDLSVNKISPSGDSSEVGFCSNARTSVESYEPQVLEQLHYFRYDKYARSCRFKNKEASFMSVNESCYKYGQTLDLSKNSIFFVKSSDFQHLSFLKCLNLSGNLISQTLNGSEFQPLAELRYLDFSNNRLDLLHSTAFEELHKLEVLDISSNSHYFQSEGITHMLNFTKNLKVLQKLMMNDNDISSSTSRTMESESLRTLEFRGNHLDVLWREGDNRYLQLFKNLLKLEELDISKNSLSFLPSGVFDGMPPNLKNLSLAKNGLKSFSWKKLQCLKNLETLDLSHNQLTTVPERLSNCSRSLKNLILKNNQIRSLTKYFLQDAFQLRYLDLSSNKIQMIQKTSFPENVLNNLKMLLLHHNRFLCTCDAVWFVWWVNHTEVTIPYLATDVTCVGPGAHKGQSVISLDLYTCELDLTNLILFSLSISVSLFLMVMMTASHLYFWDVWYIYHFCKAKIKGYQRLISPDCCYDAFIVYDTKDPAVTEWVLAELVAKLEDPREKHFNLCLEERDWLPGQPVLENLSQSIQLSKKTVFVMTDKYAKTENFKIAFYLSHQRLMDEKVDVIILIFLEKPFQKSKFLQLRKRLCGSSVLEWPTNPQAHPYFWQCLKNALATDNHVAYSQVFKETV
protocol text: TLR7 inhibition reporter assay (HEK-Blue cells, SEAP reporter, gardiquimod stimulation)
Assay type: cell-based
run conditions: HEK-Blue cells overexpressing human TLR7, SEAP reporter, gardiquimod 7.5 μM
Kindly state pIC50 for each of the entries shown.
Formally, pIC50 is defined as -log10 of the concentration c, with c in mol/L.

Entry Cc1c(-c2[nH]c3ccc(C4CN(CCS(C)(=O)=O)C4)cc3c2C(C)C)cn2cnnc2c1C [Example 532] — recorded pIC50 = 7.89

Entry Cc1cc(-c2[nH]c3ccc(CCN4CC[C@@H](F)C4)cc3c2C(C)C)cn(C)c1=O [Example 410] — recorded pIC50 = 7.89

Entry Cc1c(-c2[nH]c3ccc(C4CN(C(=O)CN(C)C)CCO4)cc3c2C(C)C)cn2ncnc2c1C (centres unmarked) [Example 329] — recorded pIC50 = 9.00

Entry COc1cc(-c2[nH]c3ccc(C4CC5CN(C6COC6)CC5C4)cc3c2C(C)C)cn2ncnc12 (centres unmarked) [Example 513] — recorded pIC50 = 9.02

Entry Cc1cc(-c2[nH]c3ccc(C4CNCCO4)cc3c2C(C)C)cn2ncnc12 (centres unmarked) [Example 282] — recorded pIC50 = 9.18

Entry CC(C)c1c(-c2ccnc3[nH]ncc23)[nH]c2ccc(C3CCCNCC3)cc12 (centres unmarked) [Example 501] — recorded pIC50 = 7.92

Entry Cc1cc(-c2[nH]c3ccc(CCN4CCCC(F)C4)cc3c2C(C)C)cn(C)c1=O (centres unmarked) [Example 406] — recorded pIC50 = 7.85

Entry COc1cc(-c2[nH]c3ccc(C4CCC(NCC(F)(F)F)CC4)cc3c2C(C)C)cn2ncnc12 (single isomer, unassigned) [Example 110] — recorded pIC50 = 7.62

----------
test system: human TLR9 (Homo sapiens, UniProt Q9NR96)
Sequence (Q9NR96 26-1032): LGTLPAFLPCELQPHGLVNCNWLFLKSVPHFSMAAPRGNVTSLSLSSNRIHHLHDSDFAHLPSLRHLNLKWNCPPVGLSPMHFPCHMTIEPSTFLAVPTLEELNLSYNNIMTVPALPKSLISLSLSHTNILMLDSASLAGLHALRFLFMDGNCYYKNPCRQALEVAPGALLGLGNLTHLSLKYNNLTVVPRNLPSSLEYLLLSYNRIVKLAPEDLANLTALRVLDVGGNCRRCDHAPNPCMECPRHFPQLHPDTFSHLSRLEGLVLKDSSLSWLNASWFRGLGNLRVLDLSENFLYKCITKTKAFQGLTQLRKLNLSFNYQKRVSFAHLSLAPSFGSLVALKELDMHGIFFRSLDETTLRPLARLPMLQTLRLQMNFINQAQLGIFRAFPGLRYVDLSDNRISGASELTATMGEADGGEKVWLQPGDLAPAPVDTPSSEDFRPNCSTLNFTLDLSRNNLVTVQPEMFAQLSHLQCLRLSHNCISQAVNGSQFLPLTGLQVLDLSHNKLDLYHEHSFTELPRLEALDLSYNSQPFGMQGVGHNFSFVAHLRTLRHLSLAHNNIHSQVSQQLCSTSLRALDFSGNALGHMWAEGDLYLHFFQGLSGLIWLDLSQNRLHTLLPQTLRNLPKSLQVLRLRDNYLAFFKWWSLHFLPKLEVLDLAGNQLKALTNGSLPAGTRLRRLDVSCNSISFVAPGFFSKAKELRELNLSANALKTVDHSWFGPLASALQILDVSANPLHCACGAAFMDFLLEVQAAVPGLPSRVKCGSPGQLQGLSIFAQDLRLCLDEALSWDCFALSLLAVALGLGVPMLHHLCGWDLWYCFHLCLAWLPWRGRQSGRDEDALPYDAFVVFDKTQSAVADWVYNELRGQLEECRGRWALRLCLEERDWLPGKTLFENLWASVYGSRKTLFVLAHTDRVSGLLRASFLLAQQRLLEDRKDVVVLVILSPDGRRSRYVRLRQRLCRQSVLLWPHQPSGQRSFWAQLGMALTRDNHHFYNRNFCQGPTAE
protocol text: TLR9 inhibition reporter assay (HEK-Blue cells, SEAP reporter, ODN2006 stimulation)
run conditions: HEK-Blue cells overexpressing human TLR9, SEAP reporter, ODN2006 5 nM
measure name: log10 of IC50 (log10 of the value in µM)
Recorded IC50 (log10, µM)

Entry COCCN1CCN(C2CCC(c3ccc4[nH]c(-c5cc(OC)c6ncnn6c5)c(C(C)C)c4c3)CC2)CC1 (single isomer, unassigned) [Example 39] — recorded log10 of IC50 = 0.35

Entry COc1cc(-c2[nH]c3ccc(C4CC(NCC(=O)N(C)C)C4)cc3c2C(C)C)cn2ncnc12 (stereo not shown) — recorded log10 of IC50 = 0.54

Entry Cc1cc(-c2[nH]c3ccc(C4CCC(C(=O)N5CCCCC5)CC4)cc3c2C(C)C)cn2ncnc12 (single isomer, unassigned) [Example 160] — recorded log10 of IC50 = 1.48

Entry Cc1c(-c2[nH]c3ccc(C4CCCN(C(=O)CN(C)C)C4)cc3c2C(C)C)cn2ncnc2c1C (stereo not shown) — recorded log10 of IC50 = 0.81

Entry COc1cc(-c2[nH]c3ccc(C4CCC(N(C)CCC(F)(F)F)CC4)cc3c2C(C)C)cn2ncnc12 (stereo not shown) [Example 75] — recorded log10 of IC50 = 0.68

Entry Cc1c(-c2[nH]c3ccc(C4CCC(NC5CC5)CC4)cc3c2C(C)C)cn2ncnc2c1C (stereo not shown) [Example 17] — recorded log10 of IC50 = 0.55

Entry Cc1cc(-c2[nH]c3ccc(C4CN(C(=O)CN(C)C)CCO4)cc3c2C(C)C)cc(C)n1 (stereo not shown) [Example 336] — recorded log10 of IC50 = -0.28

----------
Kindly state pIC50 for each of the entries shown.
test system: human TLR8 (Homo sapiens)
Construct: host or cells: HEK-Blue cells
protocol text: TLR8 inhibition reporter assay (HEK-Blue cells, SEAP reporter, R848 stimulation)
Format: cell-based
run conditions: HEK-Blue cells overexpressing human TLR8, SEAP reporter, R848 15.9 μM
Formally, pIC50 is defined as -log10 of the concentration c, with c in mol/L.

Entry Cc1c(-c2[nH]c3ccc(C4CCC(NC5(C)COC5)CC4)cc3c2C(C)C)cn2ncnc2c1C (stereo not shown) — recorded pIC50 = 9.40

Entry COc1cc(-c2[nH]c3ccc(C4CN(C5COC5)C(C)(C)CO4)cc3c2C(C)C)cn2ncnc12 (stereo not shown) — recorded pIC50 = 6.75

Entry Cc1c(-c2[nH]c3ccc(CC4CN(C5CCOCC5)C4)cc3c2C(C)C)cn(C)c(=O)c1C — recorded pIC50 = 8.19

Entry Cc1c(-c2[nH]c3ccc(C4CCC(N5CCOCC5)CC4)cc3c2C(C)C)cn2ncnc2c1C (single isomer, unassigned) [Example 92] — recorded pIC50 = 9.48

Entry COc1cc(-c2[nH]c3ccc(C4CCC(NC(=O)CN(C)C)CC4)cc3c2C(C)C)cn2ncnc12 (stereo not shown) [Example 122] — recorded pIC50 = 8.62

Entry Cc1c(-c2[nH]c3ccc(C4CCC(N(C)C5COC5)CC4)cc3c2C(C)C)cn2cnnc2c1C (stereo not shown) [Example 528] — recorded pIC50 = 7.80

Entry COCCN1CC(c2ccc3[nH]c(-c4cc(C)c5ncnn5c4)c(C(C)C)c3c2)OCC1(C)C (stereo not shown) [Example 383] — recorded pIC50 = 7.39

----------
test system: human TLR8 (Homo sapiens, UniProt Q9NR97)
Sequence (Q9NR97 27-1041): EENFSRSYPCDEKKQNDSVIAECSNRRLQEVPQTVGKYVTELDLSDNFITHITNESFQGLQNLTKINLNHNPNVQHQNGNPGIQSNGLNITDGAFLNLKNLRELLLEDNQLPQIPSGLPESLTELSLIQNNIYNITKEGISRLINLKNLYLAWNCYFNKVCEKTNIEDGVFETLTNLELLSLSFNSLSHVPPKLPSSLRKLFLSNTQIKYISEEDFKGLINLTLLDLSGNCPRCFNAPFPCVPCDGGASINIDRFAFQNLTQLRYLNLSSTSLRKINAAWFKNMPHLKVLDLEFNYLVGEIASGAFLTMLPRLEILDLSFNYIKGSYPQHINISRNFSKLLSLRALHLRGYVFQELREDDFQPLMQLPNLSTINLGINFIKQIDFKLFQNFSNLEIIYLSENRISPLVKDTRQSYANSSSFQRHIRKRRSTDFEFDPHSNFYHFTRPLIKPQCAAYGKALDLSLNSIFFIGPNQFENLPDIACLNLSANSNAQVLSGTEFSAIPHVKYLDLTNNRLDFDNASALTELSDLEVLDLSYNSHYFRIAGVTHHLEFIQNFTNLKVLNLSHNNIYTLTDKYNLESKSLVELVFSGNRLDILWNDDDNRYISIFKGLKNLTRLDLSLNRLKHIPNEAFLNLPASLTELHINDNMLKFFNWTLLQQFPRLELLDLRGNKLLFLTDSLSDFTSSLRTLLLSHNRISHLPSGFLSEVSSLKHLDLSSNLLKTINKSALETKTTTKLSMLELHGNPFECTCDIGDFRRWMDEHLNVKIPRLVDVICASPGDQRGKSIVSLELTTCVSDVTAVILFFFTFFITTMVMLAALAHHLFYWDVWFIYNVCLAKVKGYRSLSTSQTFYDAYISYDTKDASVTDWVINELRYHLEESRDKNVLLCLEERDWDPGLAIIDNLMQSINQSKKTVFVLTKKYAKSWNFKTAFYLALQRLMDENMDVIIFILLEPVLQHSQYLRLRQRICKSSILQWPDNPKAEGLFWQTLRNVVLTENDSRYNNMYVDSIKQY
protocol text: TLR8 inhibition reporter assay (HEK-Blue cells, SEAP reporter, R848 stimulation)
run conditions: HEK-Blue cells overexpressing human TLR8, SEAP reporter, R848 15.9 μM
measure name: log10(IC50) (log10 of the value in nM)
Recorded IC50 (log10, nM)

Result for COc1cc(-c2[nH]c3ccc(C4CC(NCCS(C)(=O)=O)C4)cc3c2C(C)C)cn2ncnc12 (stereo not shown) [Example 571] , tested on human TLR8 (Homo sapiens, UniProt Q9NR97), log10(IC50): -0.48

Result for Cc1c(-c2[nH]c3ccc(C4CCC(NCC(=O)N(C)C)CC4)cc3c2C(C)C)cn2cnnc2c1C (stereo not shown) [Example 518] , tested on human TLR8 (Homo sapiens, UniProt Q9NR97), log10(IC50): 1.20

Result for Cc1cc(-c2[nH]c3ccc(C4CNC4)cc3c2C(C)C)cc(C)n1 [Example 259] , tested on human TLR8 (Homo sapiens, UniProt Q9NR97), log10(IC50): 1.04

Result for Cc1c(-c2[nH]c3ccc(C4CN(CC(=O)N(C)C)CCO4)cc3c2C(C)C)cn2ncnc2c1C (stereo not shown) [Example 312] , tested on human TLR8 (Homo sapiens, UniProt Q9NR97), log10(IC50): 1.32

Result for COc1cc(-c2[nH]c3ccc(C4CCC(NCC(F)(F)F)CC4)cc3c2C(C)C)cn2ncnc12 (single isomer, unassigned) [Example 108] , tested on human TLR8 (Homo sapiens, UniProt Q9NR97), log10(IC50): 1.58

Result for COc1cc(-c2[nH]c3ccc(C4CCC(N(C)C(C)C)C4)cc3c2C(C)C)cn2ncnc12 (single isomer, unassigned) [Example 276] , tested on human TLR8 (Homo sapiens, UniProt Q9NR97), log10(IC50): -0.05

Result for CC(C)c1c(-c2ccnc3[nH]ncc23)[nH]c2ccc(C3CCC(Oc4ccncc4)CC3)cc12 (stereo not shown) [Example 505] , tested on human TLR8 (Homo sapiens, UniProt Q9NR97), log10(IC50): 2.89

Values were extracted from patent US11878975B2.
